// provenance: PubChem BioAssay

target_system: NADPH oxidase 4 (Homo sapiens)
method: NOX4-dependent H2O2 signal modulators, primary screen, NOX inhibitor project, cell-based, HEK293-NOX4, tetracycline-induced, Amplex Red fluorescence (AID 1160)
experimental_conditions: 45 min, higher = more signal, called active from +8 up or from −8 down
observation_type: z-score

# compound, target_system, test_value
data = [
    ("CC1(C)OB(/C=C\\CC(OC(=O)c2ccncc2)c2ccccc2)OC1(C)C (stereo not drawn)", "NADPH oxidase 4 (Homo sapiens)", 0.637),
    ("COCCOC(=O)N1C(=O)[C@@]2(c3cc(C#CCC(C(=O)OC)C(=O)OC)ccc31)[C@H](c1ccc(O)cc1)N1[C@H](c3ccccc3)[C@H](c3ccccc3)OC(=O)[C@H]1[C@@H]2C(=O)N1CCc2cc(OC)c(OC)cc2C1", "NADPH oxidase 4 (Homo sapiens)", 0.336),
    ("C=CCOC(=O)[C@H]1[C@@H]2C(=O)O[C@@H](c3ccccc3)[C@@H](c3ccccc3)N2[C@@H](c2ccc(OCCOC(=O)[C@H]3C[C@H]4C(=O)NCC(=O)N4[C@H]3c3cccc(OCCO)c3)cc2)[C@]12C(=O)Nc1ccc(I)cc12", "NADPH oxidase 4 (Homo sapiens)", 0.956),
]

---

method: small-molecule binders of probe aNOTCH2, primary screen, biochemical, small-molecule microarray, 635/667 nm fluorescence (AID 1121);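 also: score merges feature fluorescence read at 667 nm with its signal to noise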
experimental_conditions: higher = more signal

# compound, composite z-score
rows = [
    ("COCCOC(=O)N1C(=O)[C@@]2(c3cc(C#CC4=CCCCC4)ccc31)[C@H](C(=O)N1CCCCCCC1)[C@H]1C(=O)O[C@H](c3ccccc3)[C@H](c3ccccc3)N1[C@@H]2c1ccccc1OCCO", 0.0596),
    ("CC1C2C(CCCO)=CC(C3C(=O)N(C)C(=O)C23)N1Cc1cccc(OC(F)(F)F)c1 (configuration not stated)", 0.0083),
    ("CCCN1C(=O)[C@@]2(c3ccc([N+](=O)[O-])cc3)CC(=O)N(C3CCCCC3)[C@@H]2c2ccc(CO)cc21", -0.112),
    ("COCCOC(=O)N1C(=O)[C@@]2(c3cc(C#CCCO)ccc31)[C@H](C(=O)N1CCN(c3ncccn3)CC1)[C@H]1C(=O)O[C@H](c3ccccc3)[C@H](c3ccccc3)N1[C@@H]2c1ccc(OCCO)cc1", -0.0817),
    ("CN1C(=O)C2C=CC(C(O)c3ccc([N+](=O)[O-])cc3)N(Nc3ccccc3)C2C1=O (configuration not stated)", -0.0305),
    ("C=C(C(=O)CC[C@@H](OC(=O)c1ccccc1-c1ccccc1C(=O)O)c1ccc(CO)o1)C(C)C", -0.112),
    ("O=C1N(Cc2ccccc2)c2ccccc2C[C@@]12N=C(c1ccc(OCCCO)cc1)O[C@H]2c1ccccc1", -0.0664),
]

---

Reported composite z-score by item:
method: binders of probe aHhip on microarray, primary screen, stem cell growth factor project, biochemical, small-molecule microarray, fluorescence 635/667 (AID 1087);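 also: score merges spot fluorescence at 667nm with spot signal to noise ratio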
experimental_conditions: higher = more signal

# compound, composite z-score
records = [
    ("CC1C2C(CCCO)=CC(C3C(=O)N(C(N)=O)C(=O)C23)N1Cc1cccc(OC(F)(F)F)c1 (stereo not drawn)", 0.0659),
    ("COC(=O)c1ccc(OC)c(/C=C\\CC(OC(=O)c2ccncc2)c2ccccc2)c1 (stereo not drawn)", 0.0514),
    ("O=C1O[C@H](c2ccccc2)[C@H](c2ccccc2)N2[C@H]1[C@@H](C(=O)Nc1nc3ccccc3s1)[C@]1(C(=O)Nc3ccccc31)[C@H]2c1ccccc1OCCO", -0.0994),
]

---

method: P. aeruginosa biofilm formation inhibitors, primary screen, strain PAO1, LB-PBS medium, absorbance 600 nm (AID 1176); also: test concentration not given here
experimental_conditions: P. aeruginosa PAO1 growth/biofilm, A600, 12 h; higher = more signal
Reported z-score by item:

# molecule, z-score
rows = [
    ("C=C(C(=O)CC[C@@H](OC(=O)c1cccnc1)c1cccc(OCCO)c1)C(C)C", 0.33),
    ("C=CCNC(=O)[C@@H]1[C@H]2C(=O)O[C@H](c3ccccc3)[C@H](c3ccccc3)N2[C@H](c2ccc(OCCO)cc2)[C@@]12C(=O)Nc1ccc(C#CCNC(N)=O)cc12", 1.18),
    ("O=C(NC1CC1)[C@@H]1c2ccccc2C(=O)N(C2CCCCC2)[C@H]1c1ccc(CO)cc1", 0.292),
    ("COC(=O)[C@@]1(Cc2ccc(F)cc2)[C@H]2c3cc(C(=O)N4CCCC4)n(CCSCCO)c3C[C@H]2CN1C(=O)c1ccccc1", 0.855),
    ("CCCCN1CC=CC23O[C@@H]4C=CCCOC(=O)C4[C@H]2C(=O)N(CCO)[C@@H]3C1=O (stereo partly specified)", 0.345),
    ("COCCCNC(=O)[C@@]1(Cc2ccccc2I)c2ccccc2C(=O)N(C2CCCCC2)[C@H]1c1ccc(CO)cc1", 1.13),
    ("Cc1ccc(S[C@]2(C(=O)NCC(C)C)CC(=O)N(C(C)C)[C@@H]2c2ccc(CO)cc2I)cc1", -0.288),
    ("CCCCC=C[C@@H](NC(=O)C(C)(C)C)c1ccccc1", 0.563),
    ("C=C(C)C1CN([C@H](CO)c2ccccc2)C(=O)/C1=C\\c1ccccc1 (stereo partly specified)", -0.234),
    ("O=C1O[C@H](c2ccccc2)[C@H](c2ccccc2)N2[C@H]1[C@@H](C(=O)O)[C@]1(C(=O)Nc3ccccc31)[C@H]2c1ccc(OCCO)cc1", 0.0485),
    ("C=C(CCCC)/C(=C/C[C@@H](OC(C)=O)c1ccc(OCCO)cc1)c1cc(C(=O)OC)ccc1OC", 0.862),
    ("CS(=O)(=O)CCOC(=O)C1=CC(CCCO)=CC(C2CC2)N(Cc2sc3ccccc3c2Cl)C=C1C(=O)OCCS(C)(=O)=O (stereo unspecified)", 0.0478),
    ("CC(C)c1ccc(NN2C(C(O)C(C)c3ccccc3)C=CC3C(=O)N(c4ccccc4)C(=O)C32)cc1 (stereo unspecified)", 1.22),
    ("C=CCNC(=O)[C@H]1[C@@H]2C(=O)O[C@@H](c3ccccc3)[C@@H](c3ccccc3)N2[C@@H](c2ccc(O)cc2)[C@]12C(=O)Nc1ccccc12", 1.15),
    ("CC(C)[Si](C#Cc1ccccc1)(O[C@H](c1ccccc1)c1cn(Cc2ccccc2)nn1)C(C)C", -0.571),
    ("O=C1NC(=O)C2C1C=CC(C(O)C1CCCCC1)N2Nc1ccccn1 (stereo unspecified)", 2.68),
]

---

method: A549 cell viability effects, profiling panel, calcein-AM fluorescence, 48 h, basal (AID 1162); also: test concentration not given here
experimental_conditions: higher = more signal
Label rule, in plain words: z-score of -0.2 and up is 1 (yes), under -0.2 is 0 (no).

# compound, label_class
data = [
    ("CC(C)C[C@@H]1NC(=O)[C@H]2C[C@@H](C(=O)O)[C@@H](c3cccc(OCCO)c3)N2C1=O", "0 (no)"),
    ("O=C(c1ccccc1)N1Cc2ccccc2C[C@@]2(N=C(c3ccc(OCCCO)cc3)O[C@H]2c2ccccc2)C1=O", "0 (no)"),
    ("CC(CO)N1C(=O)[C@@H]2[C@H]3C(=O)OCC=C[C@H]3OC23C=CCN(c2ccc4ccccc4c2)C(=O)[C@@H]13 (stereo partly drawn)", "1 (yes)"),
    ("COc1ccc([Si](C)(C)[C@H]2[C@H](CC(=O)N3CCC[C@H]3CO)O[C@@]3(C(=O)N(C)c4c(Br)cc(C)cc43)[C@@H]2C)cc1", "1 (yes)"),
    ("CCCC=C(CCC)[C@@H](NC(=O)c1ccc(C(=O)OC)cc1)c1ccc(C(=O)OC)cc1", "0 (no)"),
    ("C=C1C(=O)C=C2CN(C(=O)c3ccccc3)[C@@](Cc3ccc(F)cc3)(C(=O)OC)[C@@H]12", "0 (no)"),
    ("N#Cc1ccc(NN2C(C(O)c3ccc(B(O)O)cc3)C=CC3CN(c4ccccc4)C(=O)C32)cc1 (stereo not drawn)", "1 (yes)"),
    ("C=CC[C@]1(C(N)=O)N=C(c2ccc(OCCCO)cc2)O[C@H]1c1ccccc1N=[N+]=[N-]", "1 (yes)"),
]

---

method: FRG1 promoter luciferase signal modulators, primary screen, FRG1 inhibition for FSHD, cell-based, C2C12 myotubes, firefly/Renilla luciferase, luminescence (AID 1084)
experimental_conditions: higher = more signal, called active from +8 up or from −8 down
Reported z-score by item:

# compound, z-score
rows = [
    ("CCCCN1CC=CC23O[C@@H]4C=CCCOC(=O)C4[C@H]2C(=O)N(CCO)[C@@H]3C1=O (some centres not stated)", -0.183),
    ("C#CCN(C(=O)OC(C)(C)C)[C@H](CO)c1ccccc1", -0.0216),
    ("O=C(NCC(F)(F)F)[C@@H]1c2ccccc2C(=O)N(Cc2cc(C(F)(F)F)cc(C(F)(F)F)c2)[C@H]1c1ccc(CO)cc1", -0.884),
    ("COCCOC(=O)N1C(=O)[C@@]2(c3cc(C#CC4=CCCCC4)ccc31)[C@H](c1ccc(O)cc1)N1[C@H](c3ccccc3)[C@H](c3ccccc3)OC(=O)[C@H]1[C@@H]2C(=O)N1CCc2cc(OC)c(OC)cc2C1", 0.237),
    ("C=CCNC(=O)[C@@H]1[C@H]2C(=O)O[C@H](c3ccccc3)[C@H](c3ccccc3)N2[C@H](c2ccc(OCCO)cc2)[C@@]12C(=O)Nc1ccc(C#CC3=CCCCC3)cc12", -0.138),
    ("COC(=O)[C@]1(Cc2ccccc2N=[N+]=[N-])N=C(c2ccc(OCCCO)cc2)O[C@@H]1c1ccccc1CN=[N+]=[N-]", -2.25),
    ("CCOC(=O)C[C@H]1[C@H](OC(=O)c2ccc(-c3ccccc3)cc2)[C@@H](NC(=O)c2ccc(-c3ccccc3)cc2)c2cc(OCCCO)ccc2N1C(=O)c1ccccc1", -0.281),
]
